# Tested on: Escherichia coli TOP10
# method summary: shrunken log2 fold change of peptide-encoding DNA abundance (4.5 h post-induction vs induction); higher = less antimicrobial activity (less host growth inhibition)
# experimental setup: time post-induction: 4.5 h; library: site-saturation at positions 5, 18, 19, 20
# shrunken log2 fold change annotations
Form field (numeric): enter value without unit.

>>> endpoint_result("RRIRKRPPRLPRPRPRPIRVPRP")
-0.0018

Entry RRIRVRPPRLPRPRPRPRDMPRP : reported shrunken log2 fold change = ?
-0.0624

Name the recorded shrunken log2 fold change for RRIRRRPPRLPRPRPRPNAVPRP .
0.23

Data request, read-out shrunken log2 fold change, for RRIRLRPPRLPRPRPRPMCFPRP
-0.332

Using the record for RRIRLRPPRLPRPRPRPWHNPRP , report its shrunken log2 fold change.
-0.00136

Item RRIRSRPPRLPRPRPRPIHEPRP has what recorded shrunken log2 fold change?
-0.00691

What does the record list as shrunken log2 fold change for RRIRQRPPRLPRPRPRPTEHPRP ?
-0.00172

Name the recorded shrunken log2 fold change for RRIRYRPPRLPRPRPRPSERPRP .
-0.417

* * *

# System: Escherichia coli TOP10
# method summary: shrunken log2 fold change of peptide-encoding DNA abundance (4.5 h post-induction vs induction); higher = less antimicrobial activity (less host growth inhibition)
# experimental setup: time post-induction: 4.5 h; library: site-saturation at positions 5, 18, 19, 20
Definition: the class of an entry is the range in Low: < -0.09; Medium: ≥ -0.09 and < 0.3; High: ≥ 0.3 that contains its shrunken log2 fold change.

>>> label("RRIRVRPPRLPRPRPRPWLIPRP")
"Low"

Place this sequence in its band: RRIRARPPRLPRPRPRPADRPRP
Medium

Form field 'band' for RRIRQRPPRLPRPRPRPHLRPRP
Low

GET /class?item= RRIRARPPRLPRPRPRPFRCPRP
Medium

Each sequence maps to one class by shrunken log2 fold change. Which class for RRIRMRPPRLPRPRPRPEPNPRP ?
High

Bin this entry: RRIRRRPPRLPRPRPRPMPPPRP
High

* * *

# Tested on: Escherichia coli TOP10
# method summary: shrunken log2 fold change of peptide-encoding DNA abundance (4.5 h post-induction vs induction); higher = less antimicrobial activity (less host growth inhibition)
# experimental setup: time post-induction: 4.5 h; library: site-saturation at positions 5, 18, 19, 20
Item-by-item account of shrunken log2 fold change
Simply state the number, no unit and no words.

Use these answered entries as a reference point.
>>> endpoint_result("RRIRMRPPRLPRPRPRPTFWPRP")
0.916
>>> endpoint_result("RRIRRRPPRLPRPRPRPWRYPRP")
0.322
>>> endpoint_result("RRIRPRPPRLPRPRPRPICVPRP")
-0.215
>>> endpoint_result("RRIRNRPPRLPRPRPRPHFFPRP")
3.33
>>> endpoint_result("RRIRQRPPRLPRPRPRPEPWPRP")
0.153

Requested field: shrunken log2 fold change. Item: RRIRPRPPRLPRPRPRPMPLPRP
-0.0538

Need shrunken log2 fold change, item RRIRFRPPRLPRPRPRPQSTPRP
-0.249

* * *

Measured shrunken log2 fold change by item
# Test system: Escherichia coli TOP10
# method summary: shrunken log2 fold change of peptide-encoding DNA abundance (4.5 h post-induction vs induction); higher = less antimicrobial activity (less host growth inhibition)
# experimental setup: time post-induction: 4.5 h; library: site-saturation at positions 5, 18, 19, 20
Provide a numeric answer; units are not to be included.

>>> endpoint_result("RRIRYRPPRLPRPRPRPLSDPRP")
-0.108
>>> endpoint_result("RRIRTRPPRLPRPRPRPMMWPRP")
0.00735
>>> endpoint_result("RRIRDRPPRLPRPRPRPRNAPRP")
-0.145
>>> endpoint_result("RRIRMRPPRLPRPRPRPDRYPRP")
-0.0269

What measured shrunken log2 fold change goes with RRIRIRPPRLPRPRPRPEENPRP ?
-0.306

Requested field: shrunken log2 fold change. Item: RRIRSRPPRLPRPRPRPRTQPRP
0.107

Bench note: what shrunken log2 fold change did RRIRGRPPRLPRPRPRPRPEPRP show?
0.667

Please report the recorded shrunken log2 fold change for RRIRMRPPRLPRPRPRPLFGPRP .
0.232

Given the entry RRIRDRPPRLPRPRPRPEPWPRP , report its measured shrunken log2 fold change.
0.32

* * *

# System: Escherichia coli TOP10
# method summary: shrunken log2 fold change of peptide-encoding DNA abundance (4.5 h post-induction vs induction); higher = less antimicrobial activity (less host growth inhibition)
# experimental setup: time post-induction: 4.5 h; library: site-saturation at positions 5, 18, 19, 20
Threshold rule: shrunken log2 fold change greater than or equal to 0.2 is Satisfied; below that, Not satisfied.

Hi team, for RRIRGRPPRLPRPRPRPPVWPRP , is the recorded shrunken log2 fold change at or above 0.2?
Satisfied

Would you say RRIRGRPPRLPRPRPRPGPMPRP shows shrunken log2 fold change at minimum 0.2?
Satisfied

# bool: shrunken log2 fold change of RRIRGRPPRLPRPRPRPSIEPRP >= 0.2
Satisfied

Reported shrunken log2 fold change reaches at least 0.2 for RRIRPRPPRLPRPRPRPNWRPRP ?
Satisfied

Could you please find out whether RRIRYRPPRLPRPRPRPTDDPRP has shrunken log2 fold change that meets 0.2 or exceeds it?
Not satisfied

Kindly determine if shrunken log2 fold change recorded for RRIRHRPPRLPRPRPRPGVCPRP is above or exactly 0.2.
Not satisfied

Does shrunken log2 fold change meet or surpass 0.2 for RRIRIRPPRLPRPRPRPNCDPRP ?
Not satisfied

Reported shrunken log2 fold change reaches at least 0.2 for RRIRKRPPRLPRPRPRPDCQPRP ?
Not satisfied

Answer whether shrunken log2 fold change of RRIRPRPPRLPRPRPRPLNMPRP is greater than or equal to 0.2.
Not satisfied

Confirm if shrunken log2 fold change reported for the sequence RRIRQRPPRLPRPRPRPGFFPRP is 0.2 or above.
Not satisfied

Quick check: does RRIRERPPRLPRPRPRPREVPRP have shrunken log2 fold change greater than or equal to 0.2?
Not satisfied

Decide: shrunken log2 fold change of RRIRARPPRLPRPRPRPNTFPRP >= 0.2?
Not satisfied

Quick check, shrunken log2 fold change >= 0.2? RRIRDRPPRLPRPRPRPANWPRP
Satisfied

I'd appreciate it if you could say whether RRIRYRPPRLPRPRPRPCGMPRP has shrunken log2 fold change at least equal to 0.2.
Not satisfied

Entry RRIRMRPPRLPRPRPRPMASPRP : is its shrunken log2 fold change no less than 0.2?
Not satisfied

Please indicate if the recorded shrunken log2 fold change for RRIRNRPPRLPRPRPRPYHFPRP meets or exceeds 0.2.
Not satisfied

Reported shrunken log2 fold change at or above 0.2? RRIRGRPPRLPRPRPRPDLQPRP
Satisfied

Is shrunken log2 fold change at least 0.2? Consider RRIRCRPPRLPRPRPRPCKRPRP
Not satisfied

* * *

# System: Escherichia coli TOP10;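 also: peptides expressed intracellularly from a pBAD plasmid library in pooled LB shake-flask culture, induced with 0.3% L-arabinose, DNA abundance read by NGS, three biological replicates, DESeq2 with apeglm shrinkage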
# method summary: shrunken log2 fold change of peptide-encoding DNA abundance (4.5 h post-induction vs induction); higher = less antimicrobial activity (less host growth inhibition)
# experimental setup: time post-induction: 4.5 h; library: site-saturation at positions 5, 18, 19, 20
Below is a list of entries, each paired with its recorded shrunken log2 fold change value.

Check out these entries, answers already filled in.
>>> endpoint_result("RRIRYRPPRLPRPRPRPMDWPRP")
0.0155
>>> endpoint_result("RRIRIRPPRLPRPRPRPAISPRP")
0.0106
>>> endpoint_result("RRIRDRPPRLPRPRPRPEDSPRP")
0.882
>>> endpoint_result("RRIRPRPPRLPRPRPRPIIHPRP")
-0.707

Find the recorded shrunken log2 fold change belonging to RRIRARPPRLPRPRPRPFWDPRP and report it.
0.00119

Given RRIRNRPPRLPRPRPRPVGVPRP , state its recorded shrunken log2 fold change.
-0.0443

So what does the record say about shrunken log2 fold change for RRIRTRPPRLPRPRPRPIFLPRP ?
-0.145

What does the record list as shrunken log2 fold change for RRIRLRPPRLPRPRPRPPIDPRP ?
0.13

Look up shrunken log2 fold change for this sequence: RRIRDRPPRLPRPRPRPCRPPRP
0.0754

Requested field: shrunken log2 fold change. Item: RRIRDRPPRLPRPRPRPTGQPRP
-0.0665

Query: shrunken log2 fold change; subject: RRIRCRPPRLPRPRPRPNDWPRP
-0.166

I am curious: what shrunken log2 fold change value has been reported for RRIRPRPPRLPRPRPRPVQFPRP ?
0.197

Give its shrunken log2 fold change value. Item: RRIRERPPRLPRPRPRPWKAPRP
0.0158

Field request: shrunken log2 fold change | item: RRIRDRPPRLPRPRPRPRYMPRP
-0.233

Fill blank: measured shrunken log2 fold change of the sequence RRIRERPPRLPRPRPRPAEQPRP is ____.
-0.163

Query (sequence): RRIRTRPPRLPRPRPRPGKEPRP ; field requested: shrunken log2 fold change
-0.00507

Can you look up the measured shrunken log2 fold change of RRIRSRPPRLPRPRPRPDQQPRP for me?
0.0193

Reported shrunken log2 fold change for RRIRDRPPRLPRPRPRPVVPPRP : what is it?
0.0405

Values were extracted from the supplement of paper PMC9112550.
